Reported Ki on UniProtKB P23280 for assorted compounds, compiled from publications.
Sequence (P23280 whole entry): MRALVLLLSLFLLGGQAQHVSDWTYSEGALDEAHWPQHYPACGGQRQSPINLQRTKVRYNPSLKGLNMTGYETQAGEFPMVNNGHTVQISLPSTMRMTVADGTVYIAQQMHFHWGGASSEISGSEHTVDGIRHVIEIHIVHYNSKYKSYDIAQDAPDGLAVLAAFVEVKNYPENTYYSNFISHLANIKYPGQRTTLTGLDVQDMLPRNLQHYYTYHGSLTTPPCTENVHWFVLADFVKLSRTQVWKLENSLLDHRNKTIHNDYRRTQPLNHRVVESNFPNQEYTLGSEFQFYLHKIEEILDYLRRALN
One number for each entry, in µM.

compound | measurementUnit | resultNumber
CCOC1Oc2c(Br)cc(Br)cc2C(=O)/C1=C\Nc1ccc(S(N)(=O)=O)cc1 (stereo not given) | µM | 4.28
COc1cc(C=O)ccc1OS(C)(=O)=O | µM | 12.1
Cc1ccc(S(=O)(=O)Nc2ccccc2)cc1 | µM | 13.4
Cc1ccc(S(=O)(=O)Nc2ccc([N+](=O)[O-])cc2)cc1 | µM | 1.11

Can you give me Ki for all of these, one by one?
1. CC(C)(O)[C@@H]1CC[C@](C)([C@H]2[C@@H](O)C[C@@]3(C)C4C[C@H](O[C@@H]5OC(CO)[C@@H](O)C(O)[C@@H]5O)C5C(C)(C)[C@@H](O[C@@H]6OC[C@@H](O)C(O)[C@@H]6O[C@@H]6OC[C@H](O)C(O)[C@@H]6O)CC[C@@]56C[C@@]46CC[C@]23C)O1 (stereo not given in full)
2. Cc1ccc(S(=O)(=O)Nc2ccccc2[N+](=O)[O-])cc1
3. CCOC1Oc2ccccc2C(=O)/C1=C\Nc1ccc(S(N)(=O)=O)cc1 (stereo not given)
4. CS(=O)(=O)Oc1cccc(OS(C)(=O)=O)c1OS(C)(=O)=O
5. Cc1ncc(C[n+]2csc(CCO)c2C)c(N)n1
6. CC(C)(O)[C@@H]1CC[C@](C)([C@H]2[C@@H](O)C[C@@]3(C)C4C[C@H](O[C@@H]5OC[C@@H](O)C(O)[C@@H]5O)C5C(C)(C)[C@@H](O[C@@H]6OC[C@@H](O)C(O)[C@@H]6O)CC[C@@]56C[C@@]46CC[C@]23C)O1 (stereo not given in full)

A:
1. 4.71
2. 4.71
3. 0.943
4. 458
5. 0.062
6. 9.78
